Test: soluble on expression in E. coli; label from the status in PepcDB or PDB records

sequence.string: MSVKVAFIRHHNLWIKVDGKEIQITKGEYITGPKWSYDGEWLAYVKGKKQSILELYRLKDGKKVTPFHSEASNYQWSPTENIIAFIFTGTLNTFDVEKKNADFENVSAGVGDYAWYPDGKNFLVSSEAHLLPTGWTGAQLYEVQKDAHMNPHKMKHLYALPNEHDDFLALVASGFKWSPDQKWISFLAVPTASWSADSNTLCLVRADGSRFEKVDQMLLNAQWFQWAPSKNILAYIEGSGRVALENKHLKVKELPALQQNIFTPKGYVDWDFVWKNDRVIIVSRAKEAGIETPPEKRPLPSLYEVDSTSNAQHQITKKTNKQGDYHPIFMKKSNQLIWIRSDRKKADVWLAHKDRKQEKKWIENIDVPAWYYEKWNWGNVISVKEELEHHHHHH
soluble on expression in E. coli: soluble
--
sequence.string: GMNSNFSYPALGVDGISSQISPIRDVWSTNLQQEMNLIMSLIERYPVVSMDTEFPGVVARPLGVFKSSDDYHYQTLRANVDSLKIIQIGLALSDEEGNAPVEACTWQFNFTFNLQDDMYAPESIELLTKSGIDFKKHQEVGIEPADFAELLIGSGLVLQEEVTWITFHSGYDFAYLLKAMTQIPLPAEYEEFYKILCIYFPKNYDIKYIMKSVLNNSKGLQDIADDLQIHRIGPQHQAGSDALLTARIFFEIRSRYFDGSIDSRMLNQLYGLGSTGSVLWHNNSSTPQIQFRDLPGAHPSPTPSNAGIPTTLTNTSSAPNFANSTFRFPPRVV
soluble on expression in E. coli: soluble
--
sequence.string: MQFSCSIPLPATFRPGDILAFHRRDRQEIAERVNHASVQKAMIWCGAPAYLSISFEPGLAKASLVIDGKIAEDRQPIFEGMVRRMLGLTQEIEIFEERYRDHPQLGILIAQQPGLRVPVTATPFEALTWAVTGQQISVNAAVSLRRKLIGATNTPHSCGLFCYPDARRILELPEETLRQAGFSTTKTRTLLALSALVADNELPLDAWVETLPVDVIREKLEAVRGIGPWTVNYGLLRGFGWLDGSLHGDAAVRRGLQALLGAQDKISEENTKVWLAQFSPWRALVGAHLWAAPVAIALEHHHHHH
soluble on expression in E. coli: not soluble
--
sequence.string: MGSDKIHHHHHHMKTPLVITALSLCLPFMAHAGSSFVEGDDILAGEVELGATLTTGNTDTSSFKGRLALKHELGNWENQYLLEGLYKEDTETVTAKRYIVGAQGDYLIDHDSYIFSNMNYEVDPFTGYEYSFTAASGYGHKFINDDRTKLKAEIGPGFIYQKLDSTLAAIEGYDTDKSVVAHAVINFETKLGDSSKFGQKLVMDMGEKIDARSETSLTANIVGALAMKFAVIVRYNSNPLDSKTSTDTETNMTLLYAF
soluble on expression in E. coli: not soluble
--
sequence.string: MGSDKIHHHHHHMQNHVISLASAAERRAHITDTFGVRGIPFQFFDALMPSERLEQAMAELVPGLSAHPYLSGVEKACFMSHAVLWKQALDEGLPYIAVFEDDVLLGEGAEKFLAEDAWLQERFDPDSAFIVRLETMFMHVLTSPSGVADYCGRAFPLLESEHWGTAGYIISRKAMWFFLDRFAALPSEGLHPVDWMMFGNPDDRERMPVCQLNPALCAQELHYAKFHDQNSALGSLIEHDRCLNSKQQRRDSPANTFKHRLIRALTKISREREKRRQRREQLIGKIIVPFQ
soluble on expression in E. coli: not soluble

====

Experiment: soluble on expression in E. coli; label from the status in PepcDB or PDB records

sequence.string: MGSDKIHHHHHHMIHSETFAEIATLKERNLIALKEAREAGRHAVGTYCLFSPTELILAAGAIPVSLCGTSQKPIPAAEKVLPRNLCPLIKSSYGFAVTDTCPYFHFADFLLAETTCDGKKKMYELLGELKPIHVMQLPQIQDEAALDYWLMEIGRLKTRLEREFGVRITDKALTEAIRLMNEERRSLQALQDVCKAIPSPISGLDLLTVLHNRGFSVDRRAAIELVDRFAAELRQMAAAGISPFTESTPRILLTGVPVGVGSEKLIRIIEESGASVVCLESCGAYKKVEQVREGGDPLRAIAERYLKVPCSCMSPNTGRLELVERLTREFRVDGVVDLTWLGCHTYAVESSVLKKHLQQRTGLPFLQIETDYSESDTGQLKVRVEAFLEIVHRSMKRTA
soluble on expression in E. coli: not soluble
//
sequence.string: MRGSHHHHHHGSVIFDKRIKDEEDVEKELGLPVLGSIQKFNMTNTRRSTSSLIVHEQPKSPISEKFRGIRSNIMFANPDSAVQSIVITSEAPGAGMSTIAANLAVAYAQAGYKTLIVDGDMRKPTQHYIFNLPNNEGLSSLLLNWSTYQDSIISTEIEDLDVLTSGPIPPNPSELITSRAFANLYDTLLMNYNFVIIDTPPVNTVTDAQLFSKFTGNVVYVVNSENNNKDEVKKGKELIEATGAKLLGVVLNRMPKDKSASYYAYYGTDES
soluble on expression in E. coli: soluble
//
sequence.string: IPELKDHLRIFRPRKLTLKGYRQHWVVFKETTLSYYKSQDEAPGDPIQQLNLKGCEVVPDVNVSGQKFCIKLLVPSPEGMSEIYLRCQDEQQYARWMAGCRLASKGRTMADSSYTSEVQAILAFLSLQRT
soluble on expression in E. coli: soluble
//
sequence.string: MDLFLALRELGRPDQMNLSYLYLKKILEEELRDHDCQCQLNPDFTVTISCRVDGPHGALYIVPNSDFLKSSSFSDLSAFILNLREEIRRFGEFEAELQTGTG
soluble on expression in E. coli: not soluble

====

Experiment: soluble on expression in E. coli; label from the status in PepcDB or PDB records
readout.type: soluble on expression in E. coli

sequence.string: ATDVIAQRKAILKQMGEATKPIAAMLKGEAKWDQAVVQKSLAAIADDSKKLPALFPADSKTGGDTAALPKIFEDKAKFDDLFAKLAAAATAAQGTIKDEASLKANIGGVLGNCKSCHDDFRAKKS
assay.result: soluble
//
sequence.string: MLNTIVLIRTDNFDKALTALADLVRYGGMKIRGTPRIIPPALSDWAFEQIVGEKPKKKVKAHVVAQIDLPASKAIGRIRDIHPPAHIIVIPVGSPVHKELLRLWGTFKELKGFHPPKEIKRLENIENEEDLELEHHHHHH
assay.result: not soluble
//
sequence.string: MNFGESYCSFHCSWCQPLLDSLSKESCWYLNFQSVDESQFYDETYFASPKNKTPRVSGKLKEKLLQFVKTPEDLDRPRKRAIIHICRRIKKITGQDIDPEYISKLLYGLKRARRDKFRKINREIFRGLNWDFTQFEKCTFKCVLN
assay.result: not soluble
//
sequence.string: MGSDKIHHHHHHMEYATLGNSGVEVSEVGFGAWVVGTDWWGDRTRDDAIDMVQHALDEDVTFFDTGDVYGHGDSEEIIGEALAEHRDEVTVSTKIGYDFYNNPQAGHGELPKKVTPEWVHTAVDRSLDRLGMDHVELLMLHNANVDEVDEDVLEALDELREEGKVDAIGWALGPSIGWLAEGDAAVANEFDALQTVFNLFEQTPGQHFIDTIREQNADTSVLARVPHSSGLLNEQVTPETELGKGDHRSHRPSEWYETGWEKVEEIRFLERDGARTMGQAAIQWLLYNDEVASVTPTFRTNADIDEWAGAPDTPPLSDEEYDRVQELYRDNFGIDRDDGMDALRSSVGGADLEETGMKSAGD
assay.result: not soluble
//
sequence.string: ADPEKSYAEGPGLDGGECFQPSKFKIHAVDPDGVHRTDGGDGFVVTIEGPAPVDPVMVDNGDGTYDVEFEPKEAGDYVINLTLDGDNVNGFPKTVTVKPA
assay.result: soluble
//
sequence.string: SVNAATVDLRIMETTDLHSNMMDFDYYKDAATEKFGLVRTASLIEQARAEVKNSVLVDNGDVIQGSPLGDYMAAKGLKEGDVHPVYKAMNTLNYAVGNLGNHEFNYGLDFLHKALAGAKFPYVNANIIDAKTGKPMFTPYLIQDTRVVDSDGQIHTLRIGYIGFVPPQIMTWDKANLNGKVTVNDITETARKYIPEMRAKGADVVVVVAHSGLSADPYQAMAENSVYYLSQVPGVDAIMFGHAHAVFPGKDFANIKGADIAKGTLNGVPAVMPGMWGDHLGVVDLVLNNDSGKWQVTQSKAEARPIYDAVAKKSLAAEDGKLVSVLKADHDATREFVSK
assay.result: soluble
//
sequence.string: MTIAQEPTALNFECETGNYHTFCPISCVAWLYQKIEDSFFLVIGTKTCGYFLQNAMGVMIFAEPRYAMAELEEGDISAQLNDYAELKRLCEQIKRDRNPSVIVWIGTCTTEIIKMDLEGLAPKLEGEIGIPIVVARANGLDYAFTQGEDTVLAAMAHRCPDKAPVAELEHHHHHH
assay.result: not soluble
//
sequence.string: MGLMKKFRDYFLEEDYEDYDEEYEAPQPEEEAPPKTAGKANVVSLQSVQKSAKVVLAEPRVYAEAQEIADHLKSRRAVIVNLQRIQHEQAKRIVDFLSGTVYAIGGDIQQVGTKIFLCTPENVDVSGSISLDGEDDRPMKRW
assay.result: not soluble
